System: SF-295 CNS
test: NCI tumour cell line growth inhibition, 48 h
measurement-kind: TGI (µM)
Please state the figure in µM; there is no need to write the unit.

IN: Record request: TGI value, item O=S(=O)(SC1=NCCN1)c1ccc2ccccc2c1
OUT: 65.8

IN: Record request: TGI value, item CCOC(=O)c1cc2c([nH]1)c(O)cc1c2ccn1Cc1ccccc1
OUT: 31.6

IN: Record request: TGI value, item O=C(Nc1ccncc1)C(=O)c1cn(S(=O)(=O)c2cccc(F)c2)c2ccccc12
OUT: 27.5

IN: Record request: TGI value, item COc1ccc(/C=C2\CCC(C)C3C2=NN(c2ccccc2)C3c2ccc(OC)c(OC)c2)cc1OC (stereo not drawn)
OUT: 7.55

IN: Record request: TGI value, item COC1(C)CP(=O)(OC(C)C)CC(C)=C1Cl (stereo not drawn)
OUT: 51

IN: Record request: TGI value, item Nc1nc(I)nc2c1ncn2C1OC(COS(N)(=O)=O)C(O)C1O (stereo not drawn)
OUT: 0.168

IN: Record request: TGI value, item C[N+]1=C(/C=C/c2ccc(O)c3ncccc23)C(C)(C)c2ccccc21
OUT: 5.24

IN: Record request: TGI value, item O=C1c2[nH]c3ccc(Br)cc3c2CCN1Cc1ccc(Cl)cc1
OUT: 26.2

IN: Record request: TGI value, item N#CSC1CCCCNC1=O (stereo not drawn)
OUT: 30.7

IN: Record request: TGI value, item C/C(Cl)=N/OC(=O)Nc1ccc(S(N)(=O)=O)c(C)c1
OUT: 45.3

IN: Record request: TGI value, item CCOC1Oc2ccc(C)cc2C(=O)/C1=C\Nc1ccc(C(N)=O)cc1 (stereo not drawn)
OUT: 45.9

IN: Record request: TGI value, item Cc1ccc(/C(Cl)=C/C=C(C#N)C#N)cc1
OUT: 26.9

IN: Record request: TGI value, item COc1cc(/C=N\N(C)C)cc(/C=N/N(C)C)c1O
OUT: 8.9

IN: Record request: TGI value, item CS(=O)(=O)CCNCc1ccc(-c2ccc3ncnc(Nc4ccc(OCc5ccccc5)cc4)c3c2)o1
OUT: 10.8

IN: Record request: TGI value, item CC(=O)O[C@H]1C(=O)[C@@]2(C)C(C(OC(=O)c3ccccc3)[C@]3(O)CC(OC(=O)[C@H](OC(=O)CCC(=O)O)C(NC(=O)c4ccccc4)c4ccccc4)C(C)=C1C3(C)C)C1(OC(C)=O)COC1C[C@@H]2O (stereo partly drawn)
OUT: 2.27

IN: Record request: TGI value, item O=C(O)/C=C(\c1nc2ccc([N+](=O)[O-])cc2[nH]1)c1cc(Cl)ccc1O
OUT: 20.1

IN: Record request: TGI value, item CCC[CH2][Sn]1([CH2]CCC)[O]C(=O)CN=Cc2c(ccc3ccccc23)[O]1
OUT: 2.08

IN: Record request: TGI value, item CCCCCCCC[C@@H](O)CC(=O)N[C@@H](CC(N)=O)C(=O)N[C@@H](CCC(N)=O)C(=O)N[C@@H](CC(=O)c1cc(C)cc(O)c1C(=O)c1c(O)cccc1O)CC(C)C
OUT: 7.53
